molecular target: Short transient receptor potential channel 4 (Mus musculus); experiment: blockers of DAMGO-evoked TRPC4 calcium flux – cell-based, Fluo4, HEK293 TRPC4beta/mu-opioid, confirmation (AID 2636); conditions: at 10 µM
The source made the active and inactive calls.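 How the source made its calls: active means calcium signal cut by more than 3 SD below the full-agonist control yet still positive, in both repeats and the earlier primary screen; inactive means the rest.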
Possible outcomes: active, inactive

>  <Smiles structure>
CCCCN(CC)CCCNC(=O)Cn1nc(Cc2cccnc2)c2ccccc2c1=O

>  <Class>
inactive

$$$$
>  <Smiles structure>
COc1cc(=O)n2c(-c3ccccc3)csc2n1

>  <Class>
active

$$$$
>  <Smiles structure>
Cn1c(CN2CCN(c3ccccc3NS(C)(=O)=O)CC2)nc2ccccc21

>  <Class>
inactive

$$$$
>  <Smiles structure>
c1ccc(-c2nc(NCc3ccco3)c3ccccc3n2)nc1

>  <Class>
active

$$$$
